Catalogue of binders with associated HSA kd/Parent kd
Molecular target: T1, human serum albumin (HSA), full length (human, UniProt P02768 25-609)
T1 construct: mature; Immobilized on CM5 chip (SPR) or coated on plates (ELISA)
T1 sequence (P02768 25-609): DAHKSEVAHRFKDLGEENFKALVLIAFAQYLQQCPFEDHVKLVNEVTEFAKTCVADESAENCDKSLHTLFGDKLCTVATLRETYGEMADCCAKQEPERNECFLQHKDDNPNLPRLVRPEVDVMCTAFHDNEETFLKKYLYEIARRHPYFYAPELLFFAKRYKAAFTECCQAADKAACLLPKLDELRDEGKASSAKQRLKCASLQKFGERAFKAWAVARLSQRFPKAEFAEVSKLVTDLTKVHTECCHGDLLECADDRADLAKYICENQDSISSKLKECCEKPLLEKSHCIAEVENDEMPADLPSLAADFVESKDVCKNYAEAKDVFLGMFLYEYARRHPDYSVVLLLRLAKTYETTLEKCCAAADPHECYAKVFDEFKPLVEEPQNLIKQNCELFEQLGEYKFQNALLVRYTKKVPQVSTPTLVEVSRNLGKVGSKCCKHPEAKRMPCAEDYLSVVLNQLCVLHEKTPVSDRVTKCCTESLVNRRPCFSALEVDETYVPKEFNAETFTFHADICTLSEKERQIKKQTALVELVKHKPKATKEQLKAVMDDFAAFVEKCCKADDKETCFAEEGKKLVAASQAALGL
Assay: SPR off-rate ratio to parent ADX_7016_A01, HSA, 25 C

{"columns": ["binder", "HSA kd/Parent kd"],
 "data": [
  ["ADX_6727_G10 (Y35S/K85A) (designed binder, Full His6-tagged entry) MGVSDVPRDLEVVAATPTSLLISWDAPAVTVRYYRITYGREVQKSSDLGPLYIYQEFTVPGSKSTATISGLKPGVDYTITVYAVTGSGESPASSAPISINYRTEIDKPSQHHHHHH", 3.3],
  ["ADX_6727_B04 (Y35S/K85S) (designed binder, Full His6-tagged entry) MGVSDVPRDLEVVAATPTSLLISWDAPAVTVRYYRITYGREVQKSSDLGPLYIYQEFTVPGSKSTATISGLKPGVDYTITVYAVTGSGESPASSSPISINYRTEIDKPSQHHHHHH", 4.1],
  ["ADX_7016_C03 (Y44Q) (designed binder, Full His6-tagged entry; also called 6727_B03) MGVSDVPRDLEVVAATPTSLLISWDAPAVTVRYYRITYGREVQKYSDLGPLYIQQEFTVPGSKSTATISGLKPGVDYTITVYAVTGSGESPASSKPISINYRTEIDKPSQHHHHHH", 79.4]
]}
